- testSummary: Half life period at a dose of 10 uM/kg in rat was determined
- Type: ADME, organism-based
- settings: in vivo
propertyLabel: half-life (h)
Hi! Could you send only the number? It should be in h, unit omitted.

I would be grateful if you could share the reported half-life for CN(C[C@@H](CCN1CCC(c2ccccc2[S@+](C)[O-])CC1)c1ccc(Cl)c(Cl)c1)C(=O)c1cc(C#N)cc2ccccc12 (stereo in doubt) .
1.8

----------
- System: Substance-P receptor (Oryctolagus cuniculus)
- testSummary: Binding constant towards tachykinin receptor 1 using ASMSP as agonist on rabbit pulmonary artery tissues.
propertyLabel: pKB
Please give the numeric answer without any surrounding text.

I would be grateful if you could share the reported pKB for CN(C[C@@H](CCN1CCC(O)(c2ccccc2[S+](C)[O-])CC1)c1ccc(Cl)c(Cl)c1)C(=O)c1cccc2ccccc12 (some centres not stated) .
7.3

I would be grateful if you could share the reported pKB for CN(C[C@@H](CCN1CCC(c2ccc([S+](C)[O-])cc2)CC1)c1ccc(Cl)c(Cl)c1)C(=O)c1cccc2ccccc12 (some centres not stated) .
7.4

I would be grateful if you could share the reported pKB for CN(C[C@@H](CCN1CCC(c2ccccc2[S+](C)[O-])CC1)c1ccc(Cl)c(Cl)c1)C(=O)c1cc(C(=O)O)cc2ccccc12 (some centres not stated) .
5.68

I would be grateful if you could share the reported pKB for CN(C[C@@H](CCN1CCC(c2ccccc2[S+](C)[O-])CC1)c1ccc(Cl)c(Cl)c1)C(=O)c1ccc(C#N)c2ccccc12 (some centres not stated) .
6.31

I would be grateful if you could share the reported pKB for CN(C[C@@H](CCN1CCC(c2ccccc2[S+](C)[O-])CC1)c1ccc(Cl)c(Cl)c1)C(=O)c1cc(S(C)(=O)=O)cc2ccccc12 (some centres not stated) .
7.43

I would be grateful if you could share the reported pKB for CN(C[C@@H](CCN1CCC(c2ccccc2[S+](C)[O-])CC1)c1ccc(Cl)c(Cl)c1)C(=O)c1cccc2cc(C#N)ccc12 (some centres not stated) .
8.55

I would be grateful if you could share the reported pKB for CN(C[C@@H](CCN1CCC(c2ccccc2[S+](C)[O-])CC1)c1ccc(Cl)c(Cl)c1)C(=O)c1cc(Br)cc2ccccc12 (some centres not stated) .
8.15

// data source = ChEMBL document CHEMBL1133817
